# MEASURED_TARGET: T1, human TREM2 on BWZ cells (human, UniProt Q9NZC2 19-230)
# T1 construct: whole, on cells; not tied to the cell line; also called BWZ Human TREM2
# T1 sequence (looked up): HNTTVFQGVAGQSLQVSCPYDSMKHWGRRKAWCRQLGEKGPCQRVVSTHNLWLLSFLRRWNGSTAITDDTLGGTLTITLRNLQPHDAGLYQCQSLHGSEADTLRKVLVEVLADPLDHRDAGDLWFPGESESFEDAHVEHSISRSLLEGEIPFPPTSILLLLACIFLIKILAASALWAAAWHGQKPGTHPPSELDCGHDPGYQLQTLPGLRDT
# PROTOCOL_NOTES: FACS, BWZ cells
VALUE_TYPE: binding result

{"columns": ["BINDER", "REPORTED_MEASUREMENT"],
 "data": [
  ["T1-33 (antibody, IgG1, V domains shown, huIgG1; also called TI-33; ADI-19107) VH: QVQLVESGGGVVQPGRSLRLSCAASGFTFSNYGMHWVRQAPGKGLEWVAVIWYDGSNKYYADSVKGRFTISRDNSKNTLYLQMNSLRAEDTAVYYCAKGSTHRGSAYGMDVWGQGTTVTVSS VL: DIQMTQSPSSVSASVGDRVTITCRASQGISSWLAWYQQKPGKAPKLLIYAASSLQSGVPSRFSGSGSGTDFTLTISSLQPEDFATYYCQQINDHPFTFGGGTKVEIK", "no binding"],
  ["T1-52 (antibody, IgG1, V domains shown, huIgG1; also called TI-52; ADI-19127) VH: QVQLVQSGAEVKKPGSSVKVSCKASGGTFSSYAISWVRQAPGQGLEWMGSIIPIFGTANYAQKFQGRVTITADESTSTAYMELSSLRSEDTAVYYCARDRGQYSSSWYGRMDVWGQGTTVTVSS VL: DIQMTQSPSTLSASVGDRVTITCRASQSISSWLAWYQQKPGKAPKLLIYKASSLESGVPSRFSGSGSGTEFTLTISSLQPDDFATYYCQQSSADSPFTFGGGTKVEIK", "no binding"],
  ["T1-74 (antibody, IgG1, V domains shown, huIgG1; also called TI-74; ADI-19151) VH: EVQLVESGGGLVQPGRSLRLSCAASGFTFDDYAMHWVRQAPGKGLEWVSGISWNSGSIGYADSVKGRFTISRDNAKNSLYLQMNSLRAEDTALYYCAKGPRTRGYFDLWGRGTLVTVSS VL: DIQMTQSPSTLSASVGDRVTITCRASQSISSWLAWYQQKPGKAPKLLIYKASSLESGVPSRFSGSGSGTEFTLTISSLQPDDFATYYCQQHSLLSITFGGGTKVEIK", "no binding"]
]}
